Measurement target: JAK1/TYK2 (Homo sapiens, UniProt P23458+P29597)
Assay explanation: Inhibition of JAK2/TYK2 in HEK293T cells co-expressing luciferase gene under control of ISRE assessed as reduction in IFNalpha expression incubated for 6 hrs by one-glo reagent based luciferase reporter gene assay
pEC50: −log10 of the molar value.
Measurement kind: pEC50

# lookup: [2H]C([2H])([2H])Nc1cc(Nc2cc(Cl)cn(-c3ccccn3)c2=O)nn2c(C(=O)N[C@@H]3C[C@@H]3F)cnc12 on JAK1/TYK2 (Homo sapiens, UniProt P23458+P29597), pEC50 = > 8.00

====

Measurement target: JAK2/TYK2 (Homo sapiens, UniProt O60674+P29597)
Assay explanation: Inhibition of JAK2/TYK2 signal transduction pathway in human NK92 cells assessed as […] induced IFNgamma expression incubated for 24 hrs by ELISA assay
Type: cell-based
Exercise: state measured IC50 for each of the compounds provided.
I only need the number, in nM, no unit after it.

Given the compound NC(=O)c1nnc(-c2c(F)cccc2F)cc1Nc1ccc(N2CCOCC2)cn1 and test system JAK2/TYK2 (Homo sapiens, UniProt O60674+P29597), the measured IC50 is 0.08

// assay JAK2/TYK2 (Homo sapiens, UniProt O60674+P29597), entry NC(=O)c1nnc(-c2c(F)cccc2F)cc1Nc1ccc(N2CCOCC2=O)cn1 , IC50 value = 0.3

Note to self: IC50 of NC(=O)c1nnc(-c2c(F)cccc2Cl)cc1Nc1ccc(N2CCOCC2)cc1 with JAK2/TYK2 (Homo sapiens, UniProt O60674+P29597) was 0.4

====

Measurement target: Non-receptor tyrosine-protein kinase TYK2 (Homo sapiens)
Assay explanation: Inhibition of TYK2 signal transduction pathway in human PBMC cells assessed as IL-2 induced p-STAT5 level
Assay type: cell-based
Measurement kind: IC50

# IC50 (molecule: CNc1cc2nn3c(cnc13)C(=O)N[C@H](C)COCc1ccc(OC)c(c1)N2 ) is > 10000 nM

// IC50 value for [2H]C([2H])([2H])CC(=O)c1cnc(NC(=O)C2CC2)cc1Nc1nccc(-c2ncn(C([2H])([2H])[2H])n2)c1OC : ≤ 1000 nM

Quick note, IC50 for [2H]C([2H])([2H])CC(=O)c1cnc(Nc2cccc(C#N)n2)cc1Nc1cccc(-c2ncn(C([2H])([2H])[2H])n2)c1OC landed at ≤ 100 nM

Item: [2H]C([2H])([2H])CC(=O)c1cnc(Nc2cccc(C#N)n2)cc1Nc1nccc(-c2ncn(C([2H])([2H])[2H])n2)c1OC | IC50: ≤ 100 nM

====

Assay explanation: Cmax in mouse at 10 mg/kg, po measured upto 24 hrs by LC-MS/MS analysis
Assay type: ADME, organism-based
Set-up: time < 24 hrs, dose 10 mg/kg, route po
Setup conditions: in vivo
For each record, write down the corresponding Cmax.
Note: unit ng/mL is implicit; provide only the numeric part.

So, COc1cc(Nc2cc(NC(C)=O)ncc2-c2ccc3c(n2)OCC(C)(C)O3)nc(S(C)(=O)=O)c1 ? Its Cmax was 2820

Memo: COc1cc(Nc2cc(NC(C)=O)ncc2-c2ccc(C(C)(C)O)cn2)nc(S(C)(=O)=O)c1 , reported Cmax: 8.73

The compound listed as COc1cc(Nc2cc(NC(C)=O)ncc2-c2ccc(F)cn2)nc(S(C)(=O)=O)c1 shows Cmax equal to 911

====

Exercise: state measured pIC50 for each of the molecules provided.
Assay explanation: Inhibition of IFNalpha induced STAT phosphorylation in human whole blood by fluorescence based analysis
Type: tissue-based
For clarity, pIC50 is expressed as the negative log10 of concentration in mol/L.

The molecule identified as [2H]C([2H])([2H])NC(=O)c1nnc(NC(=O)C2CC2)cc1Nc1cccc(-c2noc(CN3CCN(S(C)(=O)=O)CC3)n2)c1OC registered its pIC50 at 7.52

So for [2H]C([2H])([2H])NC(=O)c1nnc(NC(=O)C2CC2)cc1Nc1cccc(-c2ncc(C(=O)N3CCN(C4CCCC4)CC3)s2)c1OC , the logged pIC50 turned out to be 7.40

Per the records, this molecule ( [2H]C([2H])([2H])NC(=O)c1cnc(Nc2cc(C3CC3)ncn2)cc1Nc1ncccc1S(C)(=O)=O ) has pIC50 equal to 8.05

get_value(item= [2H]C([2H])([2H])NC(=O)c1nnc(NC(=O)C2CC2)cc1Nc1cccc(-c2nc(CN3CCN(S(C)(=O)=O)CC3)no2)c1OC , readout=pIC50) returns 7.52

Kindly note the recorded pIC50 for [2H]C([2H])([2H])NC(=O)c1nnc(NC(=O)[C@H]2CC23CC3)cc1Nc1ncccc1S(C)(=O)=O , which is 7.33

The reported value for [2H]C([2H])([2H])NC(=O)c1nnc(Nc2ccc(C(C)(C)O)cn2)cc1Nc1nc(C)ccc1S(C)(=O)=O in terms of pIC50 is 8.22

====

So I've got a bunch of compounds here, and I need their Kd values.
Measurement target: Tyrosine-protein kinase JAK1 (Homo sapiens, UniProt P23458)
Assay explanation: Binding affinity to JAK1 JH2 (unknown origin)

Log: Tyrosine-protein kinase JAK1 (Homo sapiens, UniProt P23458), compound [2H]C([2H])([2H])CC(=O)c1cnc(NC(=O)C2CC2)cc1Nc1nccc(-c2ncn(C([2H])([2H])[2H])n2)c1OC , Kd = ≤ 100 nM

Record [2H]C([2H])([2H])CC(=O)c1cnc(Nc2cccc(C#N)n2)cc1Nc1nccc(-c2ncn(C([2H])([2H])[2H])n2)c1OC has Tyrosine-protein kinase JAK1 (Homo sapiens, UniProt P23458) Kd equal to ≤ 100 nM

The compound [2H]C([2H])([2H])CC(=O)c1cnc(Nc2cccc(C#N)n2)cc1Nc1cccc(-c2ncn(C([2H])([2H])[2H])n2)c1OC , tested on Tyrosine-protein kinase JAK1 (Homo sapiens, UniProt P23458), showed Kd of ≤ 100 nM
